Biological target: Recombinant human BRD4 containing dual bromodomains (BRD4-BD12 (1-477)) (Homo sapiens, UniProt O60885)
Construct: Recombinant human BRD4 containing dual bromodomains (BRD4-BD12 (1-477))
Test: BRD4 Alphascreen binding assay
Reported IC50 values are given for each entry in this list.
readout: IC50

[[record]]
compoundstructure = "CC(=O)N1CCC(n2cc(-c3ccc(C(=O)O)cc3OC(F)(F)F)c3cc(-c4c(C)noc4C)cnc32)CC1"
recordedresult = "8 to 1000 µM"

[[record]]
compoundstructure = "CCOc1cc(C(=O)O)cc(OCC)c1-n1cc(CC2CCC2)c2ncc(-c3c(C)nnn3C)cc21"
recordedresult = "1 to 8 µM"

[[record]]
compoundstructure = "Cc1noc(C)c1-c1cnc2c(C(=O)c3cccc(OC(F)F)c3)cn(-c3ccnc(C(=O)O)c3)c2c1"
recordedresult = "1 to 8 µM"

[[record]]
compoundstructure = "CCOc1cc(C(=O)O)cc(OCC)c1-n1cc(-c2cnn(CCC#N)c2)c2ncc(-c3c(C)noc3C)cc21"
recordedresult = "1 to 8 µM"


----------
Reported IC50 values are given for each entry in this list.
Molecular target: Recombinant human BRD4 containing dual bromodomains (BRD4-BD12 (1-477)) (Homo sapiens)
Construct: Recombinant human BRD4 containing dual bromodomains (BRD4-BD12 (1-477))
Test: BRD4 Alphascreen binding assay
readout: IC50

[[record]]
compound = "CCCOc1cc(C(=O)O)ccc1-c1cn([C@@H](C)c2ccccn2)c2ncc(-c3c(C)noc3C)cc12"
targetundertest = "Recombinant human BRD4 containing dual bromodomains (BRD4-BD12 (1-477)) (Homo sapiens)"
readout = "IC50"
recordedresult = "8 to 1000 µM"

[[record]]
compound = "Cc1ncccc1-n1cc(-c2ccc(C(=O)O)cc2OC(F)(F)F)c2cc(-c3c(C)noc3C)cnc21"
targetundertest = "Recombinant human BRD4 containing dual bromodomains (BRD4-BD12 (1-477)) (Homo sapiens)"
readout = "IC50"
recordedresult = "8 to 1000 µM"

[[record]]
compound = "Cc1nn(C(F)F)cc1-n1cc(-c2ccc(C(=O)O)cc2OCC(F)F)c2cc(-c3c(C)noc3C)cnc21"
targetundertest = "Recombinant human BRD4 containing dual bromodomains (BRD4-BD12 (1-477)) (Homo sapiens)"
readout = "IC50"
recordedresult = "8 to 1000 µM"

[[record]]
compound = "Cc1noc(C)c1-c1cnc2c(c1)c(-c1ccc(C(=O)O)cc1OC(F)(F)F)cn2C1CCN(S(C)(=O)=O)CC1"
targetundertest = "Recombinant human BRD4 containing dual bromodomains (BRD4-BD12 (1-477)) (Homo sapiens)"
readout = "IC50"
recordedresult = "1 to 8 µM"

[[record]]
compound = "Cc1nnn(C)c1-c1cnc2c(c1)c(-c1ccc(C(=O)O)cc1OC1CC1)cn2C1CCOCC1"
targetundertest = "Recombinant human BRD4 containing dual bromodomains (BRD4-BD12 (1-477)) (Homo sapiens)"
readout = "IC50"
recordedresult = "1 to 8 µM"

[[record]]
compound = "COc1ccc(C(=O)O)cc1-n1cc(CC2CCC2)c2ncc(-c3c(C)noc3C)cc21"
targetundertest = "Recombinant human BRD4 containing dual bromodomains (BRD4-BD12 (1-477)) (Homo sapiens)"
readout = "IC50"
recordedresult = "1 to 8 µM"

[[record]]
compound = "COc1cccc(Cn2cc(-c3cccc(C(=O)O)c3)c3cc(-c4c(C)noc4C)cnc32)c1"
targetundertest = "Recombinant human BRD4 containing dual bromodomains (BRD4-BD12 (1-477)) (Homo sapiens)"
readout = "IC50"
recordedresult = "1 to 8 µM"

[[record]]
compound = "Cc1noc(C)c1-c1cnc2c(CC3CCC3)cn(-c3ccc(C(=O)O)cn3)c2c1"
targetundertest = "Recombinant human BRD4 containing dual bromodomains (BRD4-BD12 (1-477)) (Homo sapiens)"
readout = "IC50"
recordedresult = "8 to 1000 µM"

[[record]]
compound = "Cc1noc(C)c1-c1cnc2c(C3=CCOCC3)cn(-c3c(Cl)cc(C(=O)O)cc3Cl)c2c1"
targetundertest = "Recombinant human BRD4 containing dual bromodomains (BRD4-BD12 (1-477)) (Homo sapiens)"
readout = "IC50"
recordedresult = "1 to 8 µM"

[[record]]
compound = "Cc1noc(C)c1-c1cnc2c(c1)c(-c1ccc(C(=O)O)cc1)cn2C(C)c1ccc(F)cn1 (stereo not shown)"
targetundertest = "Recombinant human BRD4 containing dual bromodomains (BRD4-BD12 (1-477)) (Homo sapiens)"
readout = "IC50"
recordedresult = "8 to 1000 µM"

[[record]]
compound = "Cc1noc(C)c1-c1cnc2c(c1)c(-c1ccnc(C(=O)O)c1C)cn2C1CCOCC1"
targetundertest = "Recombinant human BRD4 containing dual bromodomains (BRD4-BD12 (1-477)) (Homo sapiens)"
readout = "IC50"
recordedresult = "0.0001 to 1 µM"

[[record]]
compound = "Cc1noc(C)c1-c1cnc2c(c1)c(-c1ccc(C(=O)O)cc1OC(F)F)cn2[C@@H](C)c1ccccn1"
targetundertest = "Recombinant human BRD4 containing dual bromodomains (BRD4-BD12 (1-477)) (Homo sapiens)"
readout = "IC50"
recordedresult = "1 to 8 µM"

[[record]]
compound = "CCOc1cc(C(=O)O)cc(F)c1-n1cc(-c2ccccc2)c2ncc(-c3c(C)noc3C)cc21"
targetundertest = "Recombinant human BRD4 containing dual bromodomains (BRD4-BD12 (1-477)) (Homo sapiens)"
readout = "IC50"
recordedresult = "1 to 8 µM"

[[record]]
compound = "Cc1noc(C)c1-c1cnc2c(c1)c(-c1ccc(C(=O)O)cc1OC(F)(F)F)cn2-c1ccccn1"
targetundertest = "Recombinant human BRD4 containing dual bromodomains (BRD4-BD12 (1-477)) (Homo sapiens)"
readout = "IC50"
recordedresult = "0.0001 to 1 µM"

[[record]]
compound = "COC(=O)c1cc(OC)c(-n2cc(-c3ccccc3)c3ncc(-c4c(C)noc4C)cc32)c(OC)c1"
targetundertest = "Recombinant human BRD4 containing dual bromodomains (BRD4-BD12 (1-477)) (Homo sapiens)"
readout = "IC50"
recordedresult = "1 to 8 µM"

[[record]]
compound = "Cc1noc(C)c1-c1cnc2c(c1)c(-c1ccc(C(=O)O)cc1)cn2C(c1ccccn1)c1ccccn1"
targetundertest = "Recombinant human BRD4 containing dual bromodomains (BRD4-BD12 (1-477)) (Homo sapiens)"
readout = "IC50"
recordedresult = "8 to 1000 µM"

[[record]]
compound = "Cc1noc(C)c1-c1cnc2c(-c3cccc(CC(=O)O)c3)c(C(F)(F)F)n([C@@H](C)c3ccccn3)c2c1"
targetundertest = "Recombinant human BRD4 containing dual bromodomains (BRD4-BD12 (1-477)) (Homo sapiens)"
readout = "IC50"
recordedresult = "8 to 1000 µM"

[[record]]
compound = "Cc1noc(C)c1-c1cnc2c(CC3CCC3)cn(-c3c(C(=O)O)ccc(Br)c3F)c2c1"
targetundertest = "Recombinant human BRD4 containing dual bromodomains (BRD4-BD12 (1-477)) (Homo sapiens)"
readout = "IC50"
recordedresult = "1 to 8 µM"

[[record]]
compound = "Cc1noc(C)c1-c1cnc2c(c1)c(-c1c(F)cc(C(=O)O)cc1OC1CC1)cn2C1CCOCC1"
targetundertest = "Recombinant human BRD4 containing dual bromodomains (BRD4-BD12 (1-477)) (Homo sapiens)"
readout = "IC50"
recordedresult = "8 to 1000 µM"

[[record]]
compound = "Cc1noc(C)c1-c1cnc2c(c1)c(-c1ccc(C(=O)O)cc1OC(F)(F)F)cn2C1CCC(C#N)C1 (stereo not shown)"
targetundertest = "Recombinant human BRD4 containing dual bromodomains (BRD4-BD12 (1-477)) (Homo sapiens)"
readout = "IC50"
recordedresult = "1 to 8 µM"

[[record]]
compound = "Cc1noc(C)c1-c1cnc2c(c1)c(-c1ccc(C(N)=O)cc1)cn2C(c1ccccn1)C1CCCC1 (stereo not shown)"
targetundertest = "Recombinant human BRD4 containing dual bromodomains (BRD4-BD12 (1-477)) (Homo sapiens)"
readout = "IC50"
recordedresult = "1 to 8 µM"

[[record]]
compound = "Cc1noc(C)c1-c1cnc2c(-c3ccccc3)cn(-c3c(Cl)cc(C(=O)O)cc3Cl)c2c1"
targetundertest = "Recombinant human BRD4 containing dual bromodomains (BRD4-BD12 (1-477)) (Homo sapiens)"
readout = "IC50"
recordedresult = "1 to 8 µM"

[[record]]
compound = "CCOc1cc(C(=O)O)cc(OCC)c1-c1cn([C@@H](C)c2ccccn2)c2ncc(-c3c(C)noc3C)cc12"
targetundertest = "Recombinant human BRD4 containing dual bromodomains (BRD4-BD12 (1-477)) (Homo sapiens)"
readout = "IC50"
recordedresult = "8 to 1000 µM"

[[record]]
compound = "Cc1noc(C)c1-c1cnc2c(c1)c(-c1ccc(C(=O)O)cc1OCC(F)(F)F)cn2C(C1CC1)C1CC1"
targetundertest = "Recombinant human BRD4 containing dual bromodomains (BRD4-BD12 (1-477)) (Homo sapiens)"
readout = "IC50"
recordedresult = "8 to 1000 µM"

[[record]]
compound = "Cc1noc(C)c1-c1cnc2c(C(=O)c3ccccc3)cn(-c3ccnc(C(=O)O)c3)c2c1"
targetundertest = "Recombinant human BRD4 containing dual bromodomains (BRD4-BD12 (1-477)) (Homo sapiens)"
readout = "IC50"
recordedresult = "0.0001 to 1 µM"

[[record]]
compound = "Cc1noc(C)c1-c1cnc2c(CC3CCC3)cn(-c3ccc(C(=O)O)c4ccoc34)c2c1"
targetundertest = "Recombinant human BRD4 containing dual bromodomains (BRD4-BD12 (1-477)) (Homo sapiens)"
readout = "IC50"
recordedresult = "1 to 8 µM"

[[record]]
compound = "Cc1noc(C)c1-c1cnc2c(c1)c(C1=CCC(C(=O)O)CC1)cn2Cc1ccccc1 (stereo not shown)"
targetundertest = "Recombinant human BRD4 containing dual bromodomains (BRD4-BD12 (1-477)) (Homo sapiens)"
readout = "IC50"
recordedresult = "1 to 8 µM"

[[record]]
compound = "CCOc1cc(C(=O)O)cc(OCC)c1-n1cc(-c2ccc(C3CC3)nc2)c2ncc(-c3c(C)noc3C)cc21"
targetundertest = "Recombinant human BRD4 containing dual bromodomains (BRD4-BD12 (1-477)) (Homo sapiens)"
readout = "IC50"
recordedresult = "1 to 8 µM"

[[record]]
compound = "Cc1noc(C)c1-c1cnc2c(c1)c(-c1cccc(C(=O)O)c1)cn2C(=O)c1ccccc1"
targetundertest = "Recombinant human BRD4 containing dual bromodomains (BRD4-BD12 (1-477)) (Homo sapiens)"
readout = "IC50"
recordedresult = "8 to 1000 µM"

[[record]]
compound = "COc1ccc(C(=O)O)cc1-c1cn(C(C)(c2ccccn2)c2ccccn2)c2cc(-c3c(C)noc3C)cnc12"
targetundertest = "Recombinant human BRD4 containing dual bromodomains (BRD4-BD12 (1-477)) (Homo sapiens)"
readout = "IC50"
recordedresult = "1 to 8 µM"

[[record]]
compound = "Cc1noc(C)c1-c1cnc2c(c1)c(C1CCC(C(=O)O)CC1)cn2-c1ccc(F)cc1F (stereo not shown)"
targetundertest = "Recombinant human BRD4 containing dual bromodomains (BRD4-BD12 (1-477)) (Homo sapiens)"
readout = "IC50"
recordedresult = "1 to 8 µM"


FYI, the data here is from patent US11446287B2.
